Origin of values: ChEMBL document CHEMBL4350955

- tgt: Cytochrome P450 3A4 (Homo sapiens, UniProt P08684)
- Sequence (P08684 whole entry): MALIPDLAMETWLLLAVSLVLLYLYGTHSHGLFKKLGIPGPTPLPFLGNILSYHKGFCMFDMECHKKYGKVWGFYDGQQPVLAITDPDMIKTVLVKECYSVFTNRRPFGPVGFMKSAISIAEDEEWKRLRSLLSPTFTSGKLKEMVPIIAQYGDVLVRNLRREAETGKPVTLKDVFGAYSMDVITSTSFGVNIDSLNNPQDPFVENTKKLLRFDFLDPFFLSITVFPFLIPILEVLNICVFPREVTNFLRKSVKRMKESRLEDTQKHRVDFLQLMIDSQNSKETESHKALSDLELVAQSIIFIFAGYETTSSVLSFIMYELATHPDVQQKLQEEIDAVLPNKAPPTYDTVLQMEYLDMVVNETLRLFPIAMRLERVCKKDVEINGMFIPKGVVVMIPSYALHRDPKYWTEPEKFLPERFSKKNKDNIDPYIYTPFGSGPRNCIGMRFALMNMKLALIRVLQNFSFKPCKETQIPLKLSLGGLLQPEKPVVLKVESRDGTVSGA
- assay notes: Inhibition of recombinant human CYP3A4 expressed in Escherichia coli assessed as maximum reduction in metabolite formation using coumarin based substrate by fluorescence assay
readout kind: pIC50
One number for each entry, as −log10 of the molar value.

Cc1cc(-c2ccc3c([C@@H]4C[C@H]5C[C@H]5C[C@H]4C(=O)Nc4cn(C)nc4C(N)=O)noc3c2)n[nH]1    5.50

Batch request: pIC50 per item, same order as input.
1. Cc1cc(-c2ccc(C(=O)[C@@H]3CCCC[C@H]3C(=O)Nc3cn(C)nc3C(N)=O)c(F)c2)[nH]n1
2. Cn1cc(NC(=O)[C@@H]2C[C@@H]3C[C@@H]3C[C@H]2C(=O)c2ccc(-c3cc[nH]n3)cc2)c(C(F)(F)F)n1

[5.20, 5.40]
